# TEST_PROTOCOL: qHTS RealTime-Glo MT Cell Viability Assay in HEK293 cells - 8 hour (AID 1224887); note: nearly all actives have a fitted effect of over 50% in size
# RUN_PARAMETERS: RealTime-Glo luminescence; series mostly up to 76.8 µM
# Description: U.S. Tox21 Program National Center for Advancing Translational Sciences [NCATS] NIH Chemical Genomics Center [NCGC] U.S. Environmental Protection Agency [EPA] National Institutes of Environmental Health Sciences [NIEHS] National Toxicology Program [NTP] U.S. Food and Drug Administration [FDA] Tox21 Assay Overview: Measure of cell viability is critical in the cell-base assay. Analysis of cell viability is necessary for the characterization of cell responses to cytotoxic drugs and environmental stress. […]
Inconclusive results are not listed. Active and inactive are the calls of the source. Calls come from the whole dose curve; as a rule, active = well fitted cell-killing curve with a large enough effect in the repeat runs; inconclusive = weak or mixed curves, or effect the other way; inactive = flat fitted curve, though single readings scatter.
Log the outcome using a class from 1 (yes) = active, 0 (no) = inactive

Assay result, entry `[O-][Br+2]([O-])O` — outcome?
0 (no)

What classification did `O=C(O)C(Br)(Br)Br` end up with in this test?
0 (no)

Answer briefly: the call reported for `CCOP(=S)(OCC)SCCl` in this assay.
0 (no)

Hi, sorry to bother you, what did the test record for `C#CC(C)(C)O` ?
0 (no)

Recorded test outcome, item `N#CN=C1SCCN1Cc1ccc(Cl)nc1`
0 (no)

Kindly provide the recorded test outcome for the following compound: `N=C(N)[Se]`
0 (no)

Name the outcome recorded for `O=[N+]([O-])CCO` in the assay.
0 (no)

Could you check what this test reported for C=CCC1(C(C)CC)C(=O)NC(=O)NC1=O (stereo unspecified) ?
0 (no)

Hi, sorry to bother you, what did the test record for `O=C(NC(=O)c1c(F)cccc1F)Nc1cc(Cl)c(F)c(Cl)c1F` ?
0 (no)

In this assay, the call recorded for `CCN[C@@H](C)Cc1ccccc1` was what?
0 (no)

How did this test come out for `CC(C)(N)Cc1ccccc1Cl` ?
0 (no)

Called result for `c1cncc([C@@H]2CCCCN2)c1`
0 (no)

Status in this test for `ClCCCCCCCl` ?
0 (no)

So what was the verdict on O=C1C2CC=CCC2C(=O)N1SC(Cl)(Cl)Cl (stereo unspecified) in this test?
1 (yes)

Which outcome was assigned to `COC(=O)c1ccc(CBr)cc1` in this test?
0 (no)

Entry `C=CCc1cc(OC)c2c(c1)OCO2` : call = ?
0 (no)

State the result this test recorded for `C[C@H](N)C(=O)c1ccccc1` .
0 (no)

Hi, do you know how `CCCN1CCC[C@@H]2Cc3nc(N)ncc3C[C@H]21` came out in this test?
0 (no)

Answer briefly: the call reported for `COc1cc(CCN)cc(OC)c1OC` in this assay.
0 (no)

Status in this test for `ClC(Cl)(Cl)Cl` ?
0 (no)

Query: recorded result category for `CCOP(=S)(OCC)Oc1ccc(Cl)cc1Cl` in this test
0 (no)

Returns: the outcome recorded for CC(Cc1ccccc1)NCCn1cnc2c1c(=O)n(C)c(=O)n2C (stereo unspecified) in this assay.
1 (yes)

What did this assay record as the result for `COC1=CC(=O)O[C@@H](/C=C/c2ccccc2)C1` ?
0 (no)

For this compound, state the assay outcome: `C/C=C/CC#N`
0 (no)

Query: recorded result category for `CCOC(=O)COc1ccc(Cl)cc1Cl` in this test
0 (no)

Name the outcome recorded for `O=C(Cl)C(Cl)(Cl)Cl` in the assay.
0 (no)

Please indicate how the test categorized `CCCCCCCCBr` .
0 (no)

Fill in: this test's call for `CNC(=O)O/N=C(/CSC)C(C)(C)C` is ___
0 (no)

Please indicate how the test categorized `NC(=O)OCCCc1ccccc1` .
0 (no)

For `COc1cccc([C@@]2(O)CCCC[C@@H]2CN(C)C)c1` , which call appears in the assay record?
0 (no)

Would you mind telling me which call this test gave `N[C@@H](Cc1ccc(Oc2cc(I)c(O)c(I)c2)c(I)c1)C(=O)O` ?
0 (no)

Assay result, entry `COP(=O)(O)OC` — outcome?
0 (no)

Any idea what this test logged for CCC1(c2ccccc2)CCC(=O)NC1=O (stereo unspecified) ?
0 (no)

Identify the outcome logged in this assay for the compound shown: O=C(NC(O)C(Cl)(Cl)Cl)NC(O)C(Cl)(Cl)Cl (stereo unspecified)
0 (no)

Outcome? `BrCc1ccc(Br)cc1`
0 (no)

Give the logged outcome of this assay for the following compound: `Oc1ccc2c3c1O[C@H]1[C@@H](O)C=C[C@H]4[C@@H](C2)NCC[C@@]341`
0 (no)

State the result this test recorded for `CCCC(C)(COC(N)=O)COC(N)=O` .
0 (no)

GET /call?item= `ClCCN1CCCC1` returns the recorded outcome of this test.
0 (no)

Outcome? `O=c1[nH]oc2c1CCNC2`
0 (no)

For `CC(Cl)(Cl)Cl` , which call appears in the assay record?
0 (no)

Tell me the assay call for OCC(Cl)CCl (stereo unspecified) please.
0 (no)

// outcome(item) with item = O=C1CCCCC1Cl (stereo unspecified)
0 (no)

Recorded test outcome, item `CCc1ccc(C2CCNCC2)cc1`
0 (no)

Recorded test outcome, item `O=C(O)C(F)(F)C(F)(F)C(F)(F)C(F)(F)C(F)(F)C(F)(F)F`
0 (no)

Give the logged outcome of this assay for the following compound: `C/C(=N\NC(=O)Nc1cc(F)cc(F)c1)c1ncccc1C(=O)O`
0 (no)

Please indicate how the test categorized `N#CN` .
0 (no)

What is the recorded call for this compound in the test? `CC(C)(O)C(Cl)(Cl)Cl`
0 (no)

Short answer needed: outcome of this test for `CC(C)[C@]12CC(=O)[C@H](C)[C@H]1C2` ?
0 (no)

# lookup: test call for CCOC1Oc2ccc(OS(C)(=O)=O)cc2C1(C)C (stereo unspecified)
0 (no)

Call for entry `O=c1[nH]c2ccccc2n1C1CCNCC1` :
0 (no)

How was C(COCC1CO1)OCC1CO1 (stereo unspecified) classified in this test?
0 (no)

Kindly provide the recorded test outcome for the following compound: `S=C=S`
0 (no)

Lab log entry: `CCOC(=O)c1ncn2c1CN(C)C(=O)c1c(I)cccc1-2` — outcome as called in the assay?
0 (no)

Recorded test call requested for `O=c1[nH]c2ccccc2o1`
0 (no)

Query: recorded result category for `CCOC(=O)Nc1cccc(OC(=O)Nc2ccccc2)c1` in this test
0 (no)

// outcome(item) with item = `COc1ccc(C=O)cc1O`
0 (no)

Hi, do you know how `Cn1c(CCCC(=O)O)nc2cc(N(CCCl)CCCl)ccc21` came out in this test?
0 (no)

Per the records of this test, what outcome belongs to `O=C(Cl)/C=C/C(=O)Cl` ?
0 (no)

Recorded test outcome, item CCC(C)(C#N)N=NC(C)(C#N)CC (stereo unspecified)
0 (no)

Recorded test call requested for `CC(C)(C)NC[C@H](O)c1ccc(O)cc1Cl`
0 (no)

# outcome recorded in this test, key = `CC1=C2[C@H]3OC(=O)[C@@H](C)[C@@H]3CC[C@@]2(C)C=CC1=O`
0 (no)
